Target: TATA-binding protein (TBP) (Homo sapiens, UniProt P20226 1-339)
Sequence (P20226 whole entry): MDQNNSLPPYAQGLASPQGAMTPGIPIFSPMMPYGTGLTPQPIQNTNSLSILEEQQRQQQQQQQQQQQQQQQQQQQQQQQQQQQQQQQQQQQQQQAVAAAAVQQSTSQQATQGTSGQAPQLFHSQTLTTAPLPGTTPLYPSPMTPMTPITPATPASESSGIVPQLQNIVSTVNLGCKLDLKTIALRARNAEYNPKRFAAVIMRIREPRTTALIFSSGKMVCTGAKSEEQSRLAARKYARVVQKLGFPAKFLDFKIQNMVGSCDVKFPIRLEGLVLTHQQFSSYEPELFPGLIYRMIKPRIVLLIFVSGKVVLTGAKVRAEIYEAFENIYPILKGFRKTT
Assay: EMSA (kinetic, kd/ka); 5 mM Mg2+; ka 5.6e3 M-1s-1, kd 13.0e-4 s-1; 20 mM HEPES-KOH pH 7.6, 5 mM MgCl2, 70 mM KCl, 1 mM DTT, 100 ug/mL BSA, 0.01% NP-40, 5% glycerol, 25 C; 0.3 nM active TBP, ODN 10-60 nM
Details: protein: recombinant; label: 32P on both strands; blunt
measurementKind: Kd (nM)
Record the value in nM, omitting the unit from your answer.

What Kd value was documented for this binder, LEP -35g (rs201381696 minor) (dsDNA) DNA 1: ATCGGGCCGCTGTAAGAGGGGCGGGC DNA 2: GCCCGCCCCTCTTACAGCGGCCCGAT ?
232
